# System: Staphylococcus aureus
# ASSAY_TEXT: Antibacterial activity against methicillin-resistant Staphylococcus aureus ATCC 33591 incubated for 18 hrs by two fold dilution method
# Assay type: functional
# CONDITION: ATCC 33591, 18 h
Entries and their MIC values follow.
# value in mg/L; strip the unit string

CHEMICAL_SMILES	MIC (mg/L)
CCCCCCCCCCCCNC[C@H]1O[C@H](O[C@@H]2[C@@H](O)[C@H](O[C@H]3O[C@H](CN)[C@@H](O)[C@H](O)[C@H]3O)[C@@H](N)C[C@H]2N)[C@H](O)[C@@H](N)[C@@H]1O.Cl.Cl.Cl.Cl.Cl	64
CCCCCCCCCCCCCCSC[C@H]1O[C@H](O[C@@H]2[C@@H](O)[C@H](O[C@H]3O[C@H](CN)[C@@H](O)[C@H](O)[C@H]3O)[C@@H](N)C[C@H]2N)[C@H](O)[C@@H](N)[C@@H]1O.Cl.Cl.Cl.Cl	16
CCCCCCCCCCSC[C@H]1O[C@H](O[C@@H]2[C@@H](O)[C@H](O[C@H]3O[C@H](CN)[C@@H](O)[C@H](O)[C@H]3O)[C@@H](N)C[C@H]2N)[C@H](O)[C@@H](N)[C@@H]1O.Cl.Cl.Cl.Cl	64
CCCCCCCCSC[C@H]1O[C@H](O[C@@H]2[C@@H](O)[C@H](O[C@H]3O[C@H](CN)[C@@H](O)[C@H](O)[C@H]3O)[C@@H](N)C[C@H]2N)[C@H](O)[C@@H](N)[C@@H]1O.Cl.Cl.Cl.Cl	256

Item under review: `CCCCCCCCCCNC[C@H]1O[C@H](O[C@@H]2[C@@H](O)[C@H](O[C@H]3O[C@H](CN)[C@@H](O)[C@H](O)[C@H]3O)[C@@H](N)C[C@H]2N)[C@H](O)[C@@H](N)[C@@H]1O.Cl.Cl.Cl.Cl.Cl` . Reported MIC?
256

Item under review: `CCCCCCCCCCCCCCCCNC[C@H]1O[C@H](O[C@@H]2[C@@H](O)[C@H](O[C@H]3O[C@H](CN)[C@@H](O)[C@H](O)[C@H]3O)[C@@H](N)C[C@H]2N)[C@H](O)[C@@H](N)[C@@H]1O.Cl.Cl.Cl.Cl.Cl` . Reported MIC?
32

Item under review: `CCCCCCCCCCCCCCCCSC[C@H]1O[C@H](O[C@@H]2[C@@H](O)[C@H](O[C@H]3O[C@H](CN)[C@@H](O)[C@H](O)[C@H]3O)[C@@H](N)C[C@H]2N)[C@H](O)[C@@H](N)[C@@H]1O.Cl.Cl.Cl.Cl` . Reported MIC?
32

Item under review: `CCCCCCCCCCCCCCNC[C@H]1O[C@H](O[C@@H]2[C@@H](O)[C@H](O[C@H]3O[C@H](CN)[C@@H](O)[C@H](O)[C@H]3O)[C@@H](N)C[C@H]2N)[C@H](O)[C@@H](N)[C@@H]1O.Cl.Cl.Cl.Cl.Cl` . Reported MIC?
16

Item under review: `CCCCCCCCCCCCSC[C@H]1O[C@H](O[C@@H]2[C@@H](O)[C@H](O[C@H]3O[C@H](CN)[C@@H](O)[C@H](O)[C@H]3O)[C@@H](N)C[C@H]2N)[C@H](O)[C@@H](N)[C@@H]1O.Cl.Cl.Cl.Cl` . Reported MIC?
32
